Reported koff values are given for each entry in this list.
TARGET_SYSTEM: T1, human CD3e/g antigen (ACRO, catalog number CDG-H52W5) (human, UniProt P07766 23-126; P09693 23-116)
T1 construct: Bought reagent used as the Biacore analyte; also called hCD3e/g
PROTOCOL_DESCRIPTION: SPR (Biacore 8K), antibody captured via anti-human Fc

>  <BINDER>
hAb001-28 (antibody, V domains shown, Humanized; constant regions not specified) VH: QVQLVQSGAEVKKPGASVKVSCKASGYSFTNYYMHWVRQAPGQRLEWIGWTYPGNNNIKYNEKFKGRATITADTSASTAYMELSSLRSEDTAVYYCARDGYGYYFFDYWGQGTLVTVSS VL: DIVMTQSPDSLAVSLGERATMSCKSSQSLLNNRTRKNYLAWYQQKPGQPPKLLIYWASTRESGVPDRFTGSGSGTDFTLTISSLQAEDVAVYYCKQSYTLRTFGGGTKLEIK

>  <UNIT_ANNOTATION>
s⁻¹

>  <koff>
0.00745

$$$$
>  <BINDER>
hAb001-25 (antibody, V domains shown, Humanized; constant regions not specified) VH: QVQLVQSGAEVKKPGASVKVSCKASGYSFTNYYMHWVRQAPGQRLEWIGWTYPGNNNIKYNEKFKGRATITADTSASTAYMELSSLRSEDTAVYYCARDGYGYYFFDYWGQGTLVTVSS VL: DIVMTQSPDSLAVSLGERATINCKSSQSLLNNRTRKNYLAWYQQKPGQPPKLLIYWASTRESGVPDRFSGSGSGTDFTLTISSLQAEDVAVYYCKQSYTLRTFGGGTKLEIK

>  <UNIT_ANNOTATION>
s⁻¹

>  <koff>
0.00896

$$$$
